tgt: Myelin-associated glycoprotein (Homo sapiens) (UniProt P20916)
Sequence (whole entry): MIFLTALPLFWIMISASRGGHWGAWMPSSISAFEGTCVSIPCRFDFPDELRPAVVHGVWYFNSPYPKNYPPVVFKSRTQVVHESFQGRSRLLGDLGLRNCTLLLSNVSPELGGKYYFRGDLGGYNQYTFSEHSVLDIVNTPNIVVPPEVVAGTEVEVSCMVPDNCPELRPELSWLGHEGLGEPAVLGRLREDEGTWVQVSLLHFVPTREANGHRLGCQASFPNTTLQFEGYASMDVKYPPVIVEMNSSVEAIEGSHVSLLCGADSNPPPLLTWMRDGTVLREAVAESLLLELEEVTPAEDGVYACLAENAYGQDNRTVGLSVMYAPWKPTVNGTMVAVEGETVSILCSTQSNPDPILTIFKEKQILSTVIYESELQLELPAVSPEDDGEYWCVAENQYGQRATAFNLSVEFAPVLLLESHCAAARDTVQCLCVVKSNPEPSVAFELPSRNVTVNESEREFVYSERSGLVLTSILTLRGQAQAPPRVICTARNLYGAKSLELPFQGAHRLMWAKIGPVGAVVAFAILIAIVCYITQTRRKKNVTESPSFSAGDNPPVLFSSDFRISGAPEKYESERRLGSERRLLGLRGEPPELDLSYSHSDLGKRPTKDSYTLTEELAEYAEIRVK
method_description: Inhibition of MAG N-terminal three domains expressed in CHO cells relative to Gal-beta-(1-3)-GalNAc-OSE
Type: cell-based
measurement_name: Activity

CC(=O)N[C@@H]1[C@@H]([C@@H](O)[C@H](O)CNC(=O)c2ccc(C)cc2)O[C@@](OCc2ccccc2)(C(=O)O)C[C@@H]1O ... 806
CC(=O)N[C@H]1[C@H]([C@@H](O)[C@H](O)CO)O[C@@](OCc2ccccc2)(C(=O)O)C[C@@H]1O ... 0.62
CC(=O)N[C@H]1[C@H]([C@@H](O)[C@H](O)CNC(=O)c2ccc([N+](=O)[O-])cc2)O[C@@](OCc2ccccc2)(C(=O)O)C[C@@H]1O ... 414
COc1ccc(C(=O)NC[C@@H](O)[C@H](O)[C@@H]2O[C@@](OCc3ccccc3)(C(=O)O)C[C@H](O)[C@H]2NC(C)=O)cc1 ... 290
CC(=O)N[C@H]1[C@H]([C@@H](O)[C@H](O)CNC(=O)c2ccc(C(F)(F)F)cc2)O[C@@](OCc2ccccc2)(C(=O)O)C[C@@H]1O ... 207

[a] CC(=O)N[C@H]1[C@H]([C@@H](O)[C@H](O)CN=[N+]=[N-])O[C@@](OCc2ccccc2)(C(=O)O)C[C@@H]1O
[b] CC(=O)N[C@H]1[C@@H]([C@H](O)[C@H](O)CNC(=O)c2ccc(-c3ccccc3)cc2)O[C@@](OCc2ccccc2)(C(=O)O)C[C@@H]1O
[c] CCCCCCCCCC(=O)NC[C@@H](O)[C@H](O)[C@@H]1O[C@@](OCc2ccccc2)(C(=O)O)C[C@H](O)[C@H]1NC(C)=O
[d] CC(=O)N[C@H]1[C@@H]([C@H](O)[C@H](O)CNC(=O)c2ccccc2-c2ccccc2)O[C@@](OCc2ccccc2)(C(=O)O)C[C@@H]1O
[e] CC(=O)N[C@H]1[C@H]([C@@H](O)[C@H](O)COCc2ccccc2)O[C@@](OCc2ccccc2)(C(=O)O)C[C@@H]1O
input: // sort entries: Activity, high to low Note for the reader: the ranking is given by listing the labels in the order requested.
output: b, d, c, e, a

[P] CC(=O)N[C@H]1[C@H]([C@@H](O)[C@H](O)CNC(=O)c2ccc(Cl)cc2)O[C@@](OCc2ccccc2)(C(=O)O)C[C@@H]1O
[Q] CC(=O)N[C@H]1[C@H]([C@@H](O)[C@H](O)CNC(=O)c2ccccc2)O[C@@](OCc2ccccc2)(C(=O)O)C[C@@H]1O
input: Out of P and Q , name the one with the higher Activity. Response format: the label of the selected entry.
output: P
(P: 1070, Q: 690)
